koff values for the binders below.
Tgt: T1, wild type human CD47 (Acro Biosystems, cat. no. CD7-H5227) (human, UniProt Q08722 19-139)
T1 construct: Bought protein used as SPR analyte; also called Human CD47 wt; wild-type CD47
Method notes: SPR, IgG captured, CD47 in flow; exp 4;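 also: biacore T200 SPR using IgG from transfected HEK293 supernatants against wild-type human CD47 or its C33G mutein, rates fitted to association and dissociation curves, KD estimated from them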
Kindly provide the numeric value in s⁻¹ only, without the unit symbol.

Q: Look at this binder and give its reported koff. 108VH4.M4-VL1.M1 (antibody, V domains shown, also called original humanized 108C10A6 antibody) VH: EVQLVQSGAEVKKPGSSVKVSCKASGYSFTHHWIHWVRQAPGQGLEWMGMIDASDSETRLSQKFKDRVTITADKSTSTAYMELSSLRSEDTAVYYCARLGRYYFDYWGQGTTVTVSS VL: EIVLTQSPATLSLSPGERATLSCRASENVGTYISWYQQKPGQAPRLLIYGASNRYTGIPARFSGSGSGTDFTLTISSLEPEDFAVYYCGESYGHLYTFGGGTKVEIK
Ans: 0.00041

Q: Param item: 108VH5.M25 / 108VL1.M5 (antibody, human IgG4 S228P, kappa, V domains shown, Full-length IgG4 (S228P), kappa; also called VH5.M25 VL1.M5) VH: EVQLVQSGAEVKKPGASVKVSCKASGYTFTHHWMHWVRQAPGQGLEWMGMIDASDRETRYAQKFQGRVTMTRDTSTSTVYMELSSLRSEDTAVYYCARLGRYYFDYWGQGTLVTVSS VL: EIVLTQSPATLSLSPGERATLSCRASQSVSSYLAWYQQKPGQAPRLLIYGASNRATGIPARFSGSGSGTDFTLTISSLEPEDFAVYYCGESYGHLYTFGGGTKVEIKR
Ans: 0.0028

For the next question, use this binder.
Q: Look at this binder and give its reported koff. 108VH5.M24 / 108VL1.M5 (antibody, human IgG4 S228P, kappa, V domains shown, Full-length IgG4 (S228P), kappa; also called VH5.M24 VL1.M5) VH: EVQLVQSGAEVKKPGASVKVSCKASGYTFTHHWMHWVRQAPGQGLEWMGMIDASDLETRYAQKFQGRVTMTRDTSTSTVYMELSSLRSEDTAVYYCARLGRYYFDYWGQGTLVTVSS VL: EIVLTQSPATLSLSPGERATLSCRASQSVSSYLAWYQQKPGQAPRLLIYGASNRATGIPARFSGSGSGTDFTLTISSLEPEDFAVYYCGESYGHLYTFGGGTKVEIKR
Ans: 0.003
